- Assay Summary: chemical genetic growth profiling, strain panel (AID 1159580);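 note: tested at 20 µM; growth read once vehicle control cultures reached saturation at 30 °C; 1 = growth at the plate median or of vehicle wells; lower values mean less growth of the strain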
- Applied Conditions: S. cerevisiae deletion strains, growth OD, locus YPR167C, strain met16, active compounds read low
Among all 5,500 compounds or so, about 2,000 (36%) were called active. About 18% were inconclusive and are not listed. The list shows a part of the results.
What normalized growth was measured for each of the following?
Numbers only.

INSERT INTO results (compound, measured_quantity, value_reported) VALUES
  ('C[C@]12CCC3C(CC[C@H]4C[C@@H](O)CC[C@]34C)C1CCC2=O (stereo partly specified)', 'normalized growth', 0.814),
  ('CC(=O)OCC(=O)[C@@]1(O)CCC2C3CCC4=CC(=O)CC[C@]4(C)[C@@]3(F)[C@@H](O)C[C@@]21C (stereo partly specified)', 'normalized growth', 0.999),
  ('O=C1OC(=O)C2C3CCC(O3)C12 (stereo unspecified)', 'normalized growth', 0.977),
  ('C[C@]12C=CC(=O)C=C1CCC1C2C(=O)C[C@@]2(C)C1CC[C@]2(O)C(=O)CO (stereo partly specified)', 'normalized growth', 0.996),
  ('CC1=C(C(=O)O)N2C(=O)[C@@H](NC(=O)[C@H](N)C3=CCC=CC3)C2SC1 (stereo partly specified)', 'normalized growth', 0.998),
  ('CC1=C2CCC3C(CC[C@]4(C)C(=O)CCC34)[C@@]2(C)CCC1=O (stereo partly specified)', 'normalized growth', 0.972);

// input: 5 compounds below; output: normalized growth for each
1. CC(C)(O)CC[C@@H](O)[C@](C)(O)C1CC[C@@]2(O)C3=CC(=O)C4C[C@@H](O)[C@@H](O)C[C@]4(C)C3CC[C@]12C (stereo partly specified)
2. CC(C)=CCC1=C(O)c2ccccc2C(=O)C1=O
3. CCCC(=O)Nc1ncnc2c1ncn2C1O[C@@H]2COP(=O)(O)O[C@H]2[C@H]1OC(=O)CCC (stereo partly specified)
4. COc1cc2ccc(=O)oc2c2ccoc12
5. C[C@]12CCC3C(CC[C@H]4C[C@@H](Cl)CC[C@]34C)C1CCC2=O (stereo partly specified)

0.999
0.937
1.01
0.97
0.996

###

- Assay Summary: chemical genetic growth profiling, strain panel (AID 1159580);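 note: tested at 20 µM; growth read once vehicle control cultures reached saturation at 30 °C; 1 = growth at the plate median or of vehicle wells; lower values mean less growth of the strain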
- Applied Conditions: S. cerevisiae deletion strains, growth OD, locus YPL051W, strain arl3, active compounds read low
The campaign covered roughly 5,500 compounds. About 2,000 (36%) were called active. Not shown: some 18% with an inconclusive outcome. Some of the results follow.
Threshold 1. normalized growth below it: fulfilled. normalized growth at it or above: not fulfilled.

INSERT INTO measurements (molecule, class) VALUES
  ('COc1cc(O)c(C(C)=O)c(OC)c1', 'fulfilled');

Regarding CC(=O)N[C@@H](CC(=O)O)C(=O)O , kindly confirm whether its normalized growth is beneath 1.
not fulfilled

What would you report for CC(C)=CCc1c(O)cc2occ(-c3ccc4c(c3)OCO4)c(=O)c2c1O ?
fulfilled

What would you report for CC(=O)OC1CCC2C3CCc4cc(O)ccc4C3CCC12C (configuration not stated) ?
fulfilled

What would you report for CC(=O)Oc1ccc2c(c1)CCC1C2CCC2(C)C1CC(OC(C)=O)C2OC(C)=O (configuration not stated) ?
fulfilled

What would you report for CC1(C)C=Cc2c(cc3occ(-c4ccc5c(c4)OCO5)c(=O)c3c2O)O1 ?
fulfilled

These measurements were taken from PubChem BioAssay AID1159580.
